Experiment: Toxicity on nucleated cells, human PBL
Assay type: cell-based
Settings: human, pbl, human PBLs; AmB 12 derivative, comparison of different catalysts (Table 4); read-out: LD 50
Method: B.2: Study of the toxicity on nucleated cells The solutions of the amphotericine B derivatives are prepared similarly to those mentioned in paragraph B.1. The cells are prepared by placing 20 ml of blood diluted to 1/2 with 0.9% NaCl into a tube together with 10 ml of Ficoll-hypaque, and the mixture is centrifuged at 2000 rpm for 30 minutes. The cell nuclei are recovered and washed twice with PBS buffer containing 5% of foetal calf serum. […]
Counter-ions that a name gives are not always drawn.
observed_property: CC50 at 1.5 h

Which CC50 at 1.5 h value belongs to C[C@@H]1[C@H](O)[C@@H](C)/C=C/C=C/C=C/C=C/C=C/C=C/C=C/[C@H](O[C@@H]2O[C@H](C)[C@@H](O)[C@H](NC3O[C@H](C(N)=O)[C@@H](O)[C@H](O)[C@H]3O)[C@@H]2O)C[C@@H]2O[C@](O)(C[C@@H](O)C[C@@H](O)[C@H](O)CC[C@@H](O)C[C@@H](O)CC(=O)O[C@H]1C)C[C@H](O)[C@H]2C(=O)O (stereo partly shown) [Uncatalyzed NMG salt, reference compound] ?
80 µM

====

Experiment: Toxicity on nucleated cells, mice B lymph gland cells
Type: cell-based
Conditions: mouse, 1 hour 30, trypan blue, read-out: LD 50 (concentration leading to a mortality of 50%)
observed_property: CC50 at 1.5 h (µM)
Expressed in µM, but write only the number.

compound	recorded_value
C[C@@H]1[C@H](O)[C@@H](C)/C=C/C=C/C=C/C=C/C=C/C=C/C=C/[C@H](O[C@@H]2O[C@H](C)[C@@H](O)[C@H](NCC3(O)O[C@H](C(N)=O)[C@@H](O)[C@@H]3O)[C@@H]2O)C[C@@H]2O[C@](O)(C[C@@H](O)C[C@@H](O)[C@H](O)CC[C@@H](O)C[C@@H](O)CC(=O)O[C@H]1C)C[C@H](O)[C@H]2C(=O)O (stereo partly shown)	10
C[C@@H]1[C@H](O)[C@@H](C)/C=C/C=C/C=C/C=C/C=C/C=C/C=C/[C@H](O[C@@H]2O[C@H](C)[C@@H](O)[C@H](NCC3(O)O[C@H](C(=O)O)[C@@H](O)[C@@H]3O)[C@@H]2O)C[C@@H]2O[C@](O)(C[C@@H](O)C[C@@H](O)[C@H](O)CC[C@@H](O)C[C@@H](O)CC(=O)O[C@H]1C)C[C@H](O)[C@H]2C(=O)O (stereo partly shown)	150
C[C@@H]1[C@H](O)[C@@H](C)/C=C/C=C/C=C/C=C/C=C/C=C/C=C/[C@H](O[C@@H]2O[C@H](C)[C@@H](O)[C@H](NCC(=O)[C@@H](O)[C@@H]3OC(c4ccccc4)OC[C@H]3O)[C@@H]2O)C[C@@H]2O[C@](O)(C[C@@H](O)C[C@@H](O)[C@H](O)CC[C@@H](O)C[C@@H](O)CC(=O)O[C@H]1C)C[C@H](O)[C@H]2C(=O)O (stereo partly shown)	100

# context switch: different compound, same CC50 at 1.5 h
Which CC50 at 1.5 h value belongs to CC1OC[C@@H](O)[C@H]([C@H](O)C(=O)CN[C@@H]2[C@H](O)[C@H](O[C@H]3/C=C/C=C/C=C/C=C/C=C/C=C/C=C/[C@H](C)[C@@H](O)[C@@H](C)[C@H](C)OC(=O)C[C@H](O)C[C@H](O)CC[C@@H](O)[C@H](O)C[C@H](O)C[C@]4(O)C[C@H](O)[C@@H](C(=O)O)[C@H](C3)O4)O[C@H](C)[C@H]2O)O1 (stereo partly shown) ?
20

====

Test: Toxicity on nucleated cells, mice T lymph gland cells
Assay type: cell-based
Conditions: mouse, 1 hour 30, trypan blue, read-out: LD 50 (concentration leading to a mortality of 50%)
Readings of CC50 at 1.5 h for the listed compounds
Expressed in µM, but write only the number.

These solved cases illustrate the format of a correct answer.
compound	CC50 at 1.5 h (µM)
C[C@@H]1[C@H](O)[C@@H](C)/C=C/C=C/C=C/C=C/C=C/C=C/C=C/[C@H](O[C@@H]2O[C@H](C)[C@@H](O)[C@H](NCC3(O)O[C@H](C(N)=O)[C@@H](O)[C@@H]3O)[C@@H]2O)C[C@@H]2O[C@](O)(C[C@@H](O)C[C@@H](O)[C@H](O)CC[C@@H](O)C[C@@H](O)CC(=O)O[C@H]1C)C[C@H](O)[C@H]2C(=O)O (stereo partly shown)	10
C[C@@H]1[C@H](O)[C@@H](C)/C=C/C=C/C=C/C=C/C=C/C=C/C=C/[C@H](O[C@@H]2O[C@H](C)[C@@H](O)[C@H](NCC3(O)O[C@H](C(=O)O)[C@@H](O)[C@@H]3O)[C@@H]2O)C[C@@H]2O[C@](O)(C[C@@H](O)C[C@@H](O)[C@H](O)CC[C@@H](O)C[C@@H](O)CC(=O)O[C@H]1C)C[C@H](O)[C@H]2C(=O)O (stereo partly shown)	20
C[C@@H]1[C@H](O)[C@@H](C)/C=C/C=C/C=C/C=C/C=C/C=C/C=C/[C@H](O[C@@H]2O[C@H](C)[C@@H](O)[C@H](NCC(=O)[C@@H](O)[C@@H]3OC(c4ccccc4)OC[C@H]3O)[C@@H]2O)C[C@@H]2O[C@](O)(C[C@@H](O)C[C@@H](O)[C@H](O)CC[C@@H](O)C[C@@H](O)CC(=O)O[C@H]1C)C[C@H](O)[C@H]2C(=O)O (stereo partly shown)	100

# context switch: different compound, same CC50 at 1.5 h
Which CC50 at 1.5 h value belongs to CC1OC[C@@H](O)[C@H]([C@H](O)C(=O)CN[C@@H]2[C@H](O)[C@H](O[C@H]3/C=C/C=C/C=C/C=C/C=C/C=C/C=C/[C@H](C)[C@@H](O)[C@@H](C)[C@H](C)OC(=O)C[C@H](O)C[C@H](O)CC[C@@H](O)[C@H](O)C[C@H](O)C[C@]4(O)C[C@H](O)[C@@H](C(=O)O)[C@H](C3)O4)O[C@H](C)[C@H]2O)O1 (stereo partly shown) ?
20

====

System: Aspergillus flavus
Experiment: Diffusion method in agar-agar medium (Sabouraud agar-agar)
Assay type: cell-based
Conditions: Sabouraud agar-agar, disc diameter 1 cm, 0.1 ml
observed_property: concentration giving a growth inhibition of 1 cm around a disc in solid medium

These solved cases illustrate the format of a correct answer.
compound	recorded_value
C[C@@H]1[C@H](O)[C@@H](C)/C=C/C=C/C=C/C=C/C=C/C=C/C=C/[C@H](O[C@@H]2O[C@H](C)[C@@H](O)[C@H](NCC3(O)O[C@H](C(N)=O)[C@@H](O)[C@@H]3O)[C@@H]2O)C[C@@H]2O[C@](O)(C[C@@H](O)C[C@@H](O)[C@H](O)CC[C@@H](O)C[C@@H](O)CC(=O)O[C@H]1C)C[C@H](O)[C@H]2C(=O)O (some centres unmarked) [AmB 12 G]	9 × 10^-5 molarity
CC(=O)NC[C@H]1OC(O)(CN[C@@H]2[C@H](O)[C@H](O[C@H]3/C=C/C=C/C=C/C=C/C=C/C=C/C=C/[C@H](C)[C@@H](O)[C@@H](C)[C@H](C)OC(=O)C[C@H](O)C[C@H](O)CC[C@@H](O)[C@H](O)C[C@H](O)C[C@]4(O)C[C@H](O)[C@@H](C(=O)O)[C@H](C3)O4)O[C@H](C)[C@H]2O)[C@@H](O)[C@@H]1O (some centres unmarked) [AmB 23 G]	5 × 10^-4 molarity

Form entry - test system: Aspergillus flavus; read-out: concentration giving a growth inhibition of 1 cm around a disc in solid medium; compound: C[C@@H]1[C@H](O)[C@@H](C)/C=C/C=C/C=C/C=C/C=C/C=C/C=C/[C@H](O[C@@H]2O[C@H](C)[C@@H](O)[C@H](NCC3(O)O[C@H](C(N)=O)[C@@H](O)[C@@H]3O)[C@@H]2O)C[C@@H]2O[C@](O)(C[C@@H](O)C[C@@H](O)[C@H](O)CC[C@@H](O)C[C@@H](O)CC(=O)O[C@H]1C)C[C@H](O)[C@H]2C(=O)O (some centres unmarked) [AmB 12 F]
3 × 10^-4 molarity

Form entry - test system: Aspergillus flavus; read-out: concentration giving a growth inhibition of 1 cm around a disc in solid medium; compound: CC1OC[C@@H](O)[C@H]([C@H](O)C(=O)CN[C@@H]2[C@H](O)[C@H](O[C@H]3/C=C/C=C/C=C/C=C/C=C/C=C/C=C/[C@H](C)[C@@H](O)[C@@H](C)[C@H](C)OC(=O)C[C@H](O)C[C@H](O)CC[C@@H](O)[C@H](O)C[C@H](O)C[C@]4(O)C[C@H](O)[C@@H](C(=O)O)[C@H](C3)O4)O[C@H](C)[C@H]2O)O1 (some centres unmarked) [AmB 22 G]
9 × 10^-5 molarity

Form entry - test system: Aspergillus flavus; read-out: concentration giving a growth inhibition of 1 cm around a disc in solid medium; compound: C[C@@H]1[C@H](O)[C@@H](C)/C=C/C=C/C=C/C=C/C=C/C=C/C=C/[C@H](O[C@@H]2O[C@H](C)[C@@H](O)[C@H](NCC3(O)O[C@H](C(=O)O)[C@@H](O)[C@@H]3O)[C@@H]2O)C[C@@H]2O[C@](O)(C[C@@H](O)C[C@@H](O)[C@H](O)CC[C@@H](O)C[C@@H](O)CC(=O)O[C@H]1C)C[C@H](O)[C@H]2C(=O)O (stereo partly drawn) [AmB 17 F, 1-amino-1-deoxy-D-arabinoglucuronyl-AmB]
2 × 10^-4 molarity

Form entry - test system: Aspergillus flavus; read-out: concentration giving a growth inhibition of 1 cm around a disc in solid medium; compound: C[C@@H]1[C@H](O)[C@@H](C)/C=C/C=C/C=C/C=C/C=C/C=C/C=C/[C@H](O[C@@H]2O[C@H](C)[C@@H](O)[C@H](NCC(=O)[C@@H](O)[C@@H]3OC(c4ccccc4)OC[C@H]3O)[C@@H]2O)C[C@@H]2O[C@](O)(C[C@@H](O)C[C@@H](O)[C@H](O)CC[C@@H](O)C[C@@H](O)CC(=O)O[C@H]1C)C[C@H](O)[C@H]2C(=O)O (some centres unmarked) [AmB 20 G]
6 × 10^-4 molarity

Form entry - test system: Aspergillus flavus; read-out: concentration giving a growth inhibition of 1 cm around a disc in solid medium; compound: C[C@@H]1[C@H](O)[C@@H](C)/C=C/C=C/C=C/C=C/C=C/C=C/C=C/[C@H](O[C@@H]2O[C@H](C)[C@@H](O)[C@H](NCC(=O)[C@@H](O)[C@@H]3OC(c4ccccc4)OC[C@H]3O)[C@@H]2O)C[C@@H]2O[C@](O)(C[C@@H](O)C[C@@H](O)[C@H](O)CC[C@@H](O)C[C@@H](O)CC(=O)O[C@H]1C)C[C@H](O)[C@H]2C(=O)O (some centres unmarked) [AmB 20 F]
1.5 × 10^-4 molarity

Form entry - test system: Aspergillus flavus; read-out: concentration giving a growth inhibition of 1 cm around a disc in solid medium; compound: C[C@@H]1[C@H](O)[C@@H](C)/C=C/C=C/C=C/C=C/C=C/C=C/C=C/[C@H](O[C@@H]2O[C@H](C)[C@@H](O)[C@H](NCC3(O)O[C@H](C(=O)O)[C@@H](O)[C@@H]3O)[C@@H]2O)C[C@@H]2O[C@](O)(C[C@@H](O)C[C@@H](O)[C@H](O)CC[C@@H](O)C[C@@H](O)CC(=O)O[C@H]1C)C[C@H](O)[C@H]2C(=O)O (stereo partly drawn) [AmB 17 G, 1-amino-1-deoxy-D-arabinoglucuronyl-AmB]
9 × 10^-5 molarity
